Recorded log10 of MIC values for a group of compounds are listed next.
- Test system: Escherichia coli (ATCC25922)
- ASSAY: MIC, broth microdilution (CLSI), Escherichia coli ATCC25922
- REPORTED_CONDITIONS: ATCC25922, read-out: E. coli MIC, Table 15, NI = No inhibition
QUANTITY: log10 of MIC (log10 of the value in µg/mL)

| COMPOUND | STUDY_SYSTEM | log10 of MIC |
| --- | --- | --- |
| Cl.Cl.NCCN1CCC(Nc2cc(C(F)(F)F)cc3c2Nc2ccc(N4CCCC4)cc2S3)CC1 [compound 284] | Escherichia coli (ATCC25922) | 0.90 |
| NCCNCCN1CCC(Nc2cc(C(F)(F)F)cc3c2Nc2ccccc2S3)CC1 [compound 219] | Escherichia coli (ATCC25922) | 1.15 |
| Cl.Cl.NCCNCCC(=O)Nc1cc(C(F)(F)F)cc2c1Nc1ccc(N3CCCC3)cc1S2 [compound 302] | Escherichia coli (ATCC25922) | 2.11 |
| FC(F)(F)c1cc(NC2CCCNCC2)c2c(c1)Sc1ccccc1N2 (centres unmarked) [compound 221] | Escherichia coli (ATCC25922) | 1.38 |
| NC1CCCC(c2nc3cc(C(F)(F)F)cc4c3n2-c2ccccc2S4)C1 (centres unmarked) [compound 191] | Escherichia coli (ATCC25922) | 1.70 |
| FC(F)(F)c1cc(NC2CCNCC2)c2c(c1)Sc1ccccc1N2 [compound 141] | Escherichia coli (ATCC25922) | 1.08 |
| CC1(C)CCN(c2ccc3c(c2)Sc2cc(C(F)(F)F)cc(NC4CCN(CCN)CC4)c2N3)C1.Cl [compound 332] | Escherichia coli (ATCC25922) | 0.90 |
| CN(C)CCCN1c2ccccc2Sc2cc(-c3cc4cc(CN)ccc4[nH]3)ccc21 [compound 181] | Escherichia coli (ATCC25922) | 1.43 |
| FC(F)(F)c1cc(NC2CCNCC2)c2c(c1)Sc1cccnc1N2 [compound 264] | Escherichia coli (ATCC25922) | 1.20 |
| NCCCN1c2ccc(-c3cc4ccccc4[nH]3)cc2Sc2cc(C(F)(F)F)ccc21 [compound 245] | Escherichia coli (ATCC25922) | 0.85 |
| CCN(C)c1ccc2c(c1)Sc1cc(C(F)(F)F)cc(NCCCNCCN)c1N2.Cl.Cl [compound 348] | Escherichia coli (ATCC25922) | 1.51 |
| CC1CC(C)N(c2ccc3c(c2)Sc2cc(C(F)(F)F)cc(NC4CCN(CCN)CC4)c2N3)C1.Cl.Cl (centres unmarked) [compound 341] | Escherichia coli (ATCC25922) | 0.90 |
| NC1CC(N)CC(C(=O)Nc2cc(C(F)(F)F)cc3c2Nc2ccccc2S3)C1 (centres unmarked) [compound 170] | Escherichia coli (ATCC25922) | 0.85 |

###

- System: Escherichia coli (ATCC25922)
- ASSAY: MIC, broth microdilution (CLSI), Escherichia coli ATCC25922
- REPORTED_CONDITIONS: ATCC25922, read-out: E. coli MIC, Table 15, NI = No inhibition
Recorded MIC values for a group of compounds are listed next.

| COMPOUND | MIC |
| --- | --- |
| CC1CCN(c2ccc3c(c2)Sc2cc(C(F)(F)F)cc(NC4CCN(CCN)CC4)c2N3)C1.Cl.Cl (stereo not shown) [compound 311] | 8 mg/L |
| Cl.Cl.Cl.NCCCN1c2ccc(N3CCCC3)cc2Sc2cc(N3CCN(CCN)CC3)ccc21 [compound 291] | 128 mg/L |
| Cl.Cl.Cl.NCCC1CCN(c2ccc3c(c2)Sc2cc(C(F)(F)F)cc(NC4CCN(CCN)CC4)c2N3)CC1 [compound 273] | 32 mg/L |
| CC1CCCN(c2ccc3c(c2)Sc2cc(C(F)(F)F)cc(NC(=O)C4CCCC(N)C4)c2N3)C1.Cl.Cl (stereo not shown) [compound 313] | > 128 mg/L |

###

- System: Staphylococcus aureus (ATCC25923)
- ASSAY: MIC, broth microdilution (CLSI), Staphylococcus aureus ATCC25923
- REPORTED_CONDITIONS: ATCC25923, read-out: S. aureus ("Clinical") MIC
Cut-off 7 µg/mL on MIC: below means Satisfied, at or above means Not satisfied.

| COMPOUND | LABEL_CLASS |
| --- | --- |
| NC1CCCC(CC(=O)Nc2cc(C(F)(F)F)cc3c2Nc2ccccc2S3)C1 (centres unmarked) | Not satisfied |
| NCC1CCC(CNc2cc(C(F)(F)F)cc3c2Nc2ccccc2S3)CC1 (centres unmarked) | Satisfied |
| NCCCN1c2ccc(-c3cc4ccccc4[nH]3)cc2Sc2cc(C(F)(F)F)ccc21 | Satisfied |
| NCCN1CCC(Nc2cc(C(F)(F)F)cc3c2Nc2ccc(CN)cc2S3)CC1.O=C(O)C(F)(F)F.O=C(O)C(F)(F)F | Satisfied |
| CN(C)CCCN1c2ccccc2Sc2cc(-c3cccc4cn[nH]c34)ccc21 | Satisfied |
| NCC1CCCC(C(=O)Nc2cc(C(F)(F)F)cc3c2Nc2ccccc2S3)C1 (centres unmarked) | Not satisfied |
| C=CC(=O)N(CCCN(C)C)c1cc(C(F)(F)F)cc2c1Nc1ccccc1S2 | Not satisfied |
| CC(C)NCCCN1c2ccccc2Sc2cc(-c3cc4ccccc4[nH]3)ccc21 | Satisfied |
| NC1CCCC(C(=O)Nc2cc(C(F)(F)F)cc3c2Nc2ccccc2S3)C1 (centres unmarked) | Not satisfied |
| CN(C)CCCN1c2ccccc2Sc2cc(-c3ccc4[nH]cnc4c3)ccc21 | Not satisfied |
| NC1CCCC(C(=O)Nc2cc(C(F)(F)F)cc3c2Nc2cc(F)ccc2S3)C1.O=C(O)C(F)(F)F (centres unmarked) | Not satisfied |
| N[C@H]1CCC[C@@H](C(=O)Nc2cc(C(F)(F)F)cc3c2Nc2ccccc2S3)C1 | Not satisfied |
| Nc1cc(C(F)(F)F)cc2c1Nc1ccc(-c3cc4ccccc4[nH]3)cc1S2 | Not satisfied |
| FC(F)(F)c1cc(NCC2CCNCC2)c2c(c1)Sc1ccccc1N2 | Not satisfied |
| CN(C)CCCN1c2ccccc2Sc2cc(-c3ccccc3)ccc21 | Satisfied |

###

- Test system: E. coli RNase P RNA, M1 RNA
- ASSAY: Inhibition of bacterial RNase P activity, IC50 determination (cleavage of pATSerUG by M1 RNA)
- Assay type: biochemical
- REPORTED_CONDITIONS: NI = No inhibition
pIC50: −log10 of the molar value.
Recorded pIC50 values for a group of molecules are listed next.
QUANTITY: pIC50

| MOLECULE | PREFIX_OPERATOR | READOUT_NUMBER |
| --- | --- | --- |
| CNCCCN1c2ccccc2Sc2cc(-c3cc4ccccc4[nH]3)ccc21 [compound 186] | = | 4.52 |
| NCC(O)CNC(=O)c1cc2c(c([N+](=O)[O-])c1)Nc1ccccc1S2 (centres unmarked) [compound 94] | = | 3.69 |
| NCCCNC1CCCC(C(=O)Nc2cc(C(F)(F)F)cc3c2Nc2ccccc2S3)C1 (centres unmarked) [compound 162] | = | 4.30 |
| NCCN1CCC(Nc2cc3c(c(C(F)(F)F)c2)Nc2ccccc2S3)CC1 [compound 252] | = | 5.05 |
| NC[C@H]1CC[C@H](C(=O)Nc2cc(C(F)(F)F)cc3c2Nc2ccccc2S3)CC1 [compound 120] | = | 4.92 |
| COC(=O)c1ccc2c(c1)Sc1cc(C(F)(F)F)cc(NC3CCN(CCN)CC3)c1N2 [compound 247] | = | 4.80 |
| FC(F)(F)c1cc(NC2CCCNCC2)c2c(c1)Sc1ccccc1N2 (centres unmarked) [compound 221] | < | 4.00 |
| NCCNC1CCCC(C(=O)Nc2cc(C(F)(F)F)cc3c2Nc2ccccc2S3)C1 (centres unmarked) [compound 163] | = | 4.14 |

###

- System: E. coli RNase P RNA, M1 RNA
- ASSAY: Inhibition of bacterial RNase P activity, IC50 determination (cleavage of pATSerUG by M1 RNA)
- Type: biochemical
- REPORTED_CONDITIONS: NI = No inhibition
pIC50: −log10 of the molar value.

| COMPOUND | pIC50 |
| --- | --- |
| CN(C)CCCN1c2ccccc2Sc2cc(-c3cc4cc(O)ccc4[nH]3)ccc21 [compound 152] | < 4.00 |
| O=C(CC1CCC(F)(F)CC1)Nc1cc(C(F)(F)F)cc2c1Nc1ccccc1S2 [compound 132] | < 4.00 |
| NC1CCCC(C(=O)Nc2cc(C(F)(F)F)cc3c2Nc2ccc(-c4cc5ccccc5[nH]4)cc2S3)C1 (centres unmarked) [compound 242] | 5.52 |
| O=C(CCN1CCNCC1)Nc1cc(C(F)(F)F)cc2c1Nc1ccccc1S2 [compound 101] | < 4.00 |
| NCCN1CCC(Nc2cc(Cl)cc3c2Nc2ccccc2S3)CC1 [compound 214] | < 4.00 |
